- target or test system: ATX (human His-tagged) (Homo sapiens (Human))
Collected IC50 values appear next to each entry.
# unit: nM | format: bare number

[
  {
    "compound": "O=C(CCc1ccc(OC(F)(F)F)cc1)N1CC[C@@H]2CN(Cc3ccc4[nH]nnc4c3)C[C@H]2C1 (relative stereo)",
    "unit spec": "nM",
    "IC50": 309
  }
]

Memo: O=C(/C=C/c1ccc(Cl)cc1F)N1C[C@@H]2CN(C(=O)c3ccc4[nH]nnc4c3)C[C@H]2C1 , reported IC50: 17

IC50 recorded for this compound, O=C(CCc1ccc(-c2ccccc2)cn1)N1C[C@@H]2CN(C(=O)c3ccc4[nH]nnc4c3)C[C@H]2C1 , is 21

Lab note: O=C(OCc1ccc(OC(F)(F)F)cc1)N1C[C@@H]2CN(C(=O)c3cnc4[nH]nnc4c3)C[C@H]2C1 gave IC50 of 218

O=C(c1ccc2[nH]nnc2c1)N1C[C@H]2CN(C(=O)N3CCC(c4ccc(Cl)cc4)CC3)C[C@@H]2C1 yielded IC50 of 29

Measured IC50, O=C(OCc1ccc(OC(F)(F)F)cc1)N1C[C@@H]2CN(C(=O)[C@@H]3CCc4[nH]nnc4C3)C[C@H]2C1 : 5.2

* * *

- target or test system: ATX (human His-tagged) (Homo sapiens (Human), UniProt Q13822)
Below: a set of entries, each annotated with reported pIC50.
On this scale, pIC50 is minus log10 of a concentration expressed in M (mol/L).

Previously resolved entries follow.
[
  {
    "compound": "Cc1cc(OC(F)(F)F)ccc1/C=C/C(=O)N1CC[C@@H]2CN(C(=O)c3ccc4[nH]nnc4c3)C[C@@H]2CC1 [Example 1.18]",
    "pIC50": 8.00
  },
  {
    "compound": "O=C(c1ccc2[nH]nnc2c1)N1C[C@H]2CN(C(=O)c3cc4ccc(OC(F)(F)F)cc4[nH]3)C[C@@H]2C1 [Example 15.98]",
    "pIC50": 7.89
  }
]

Pending compound:
Per the records, this compound ( O=C(c1ccc2[nH]nnc2c1)N1C[C@H]2CN(C(=O)[C@H]3CC[C@H](c4ccc(Cl)cc4)CC3)C[C@@H]2C1 [Example 19.17] ) has pIC50 equal to 8.00

* * *

- target or test system: ATX (human His-tagged) (Homo sapiens (Human), UniProt Q13822)
Below, each of the compounds is paired with its reported IC50 value.
Lab book: enter the figure in nM, no units written.

Example entries and their recorded answers appear below.
[
  {
    "compound": "O=C(/C=C/c1ccc(OC(F)(F)F)c(F)c1)N1CC[C@@H]2CN(C(=O)c3ccc4[nH]nnc4c3)C[C@@H]2CC1",
    "IC50, nM": 1
  },
  {
    "compound": "O=C(OCc1cc(Cl)cc(Cl)c1)N1CC[C@@H]2CN(C(=O)c3ccc4[nH]nnc4c3)C[C@H]2C1 (single isomer, unassigned) [Example 11B]",
    "IC50, nM": 9
  }
]

Let us move to another entry and its IC50.
Case O=C(OCc1ccc(OC(F)(F)F)cc1)N1C[C@@H]2CN(C(=O)c3cc4nn[nH]c4cc3F)C[C@H]2C1 , ATX (human His-tagged) (Homo sapiens (Human), UniProt Q13822), IC50 recorded as 22

* * *

// endpoint pIC50 / system ATX (human His-tagged) (Homo sapiens (Human))
Just so you know, pIC50 here is -log10 of the concentration in molar units; reply with that number alone.

Observe how each entry below is paired with its result.
[
  {
    "compound": "O=C(/C=C/c1cccc(OC(F)(F)F)c1)N1CC[C@@H]2CN(C(=O)c3ccc4[nH]nnc4c3)C[C@@H]2CC1 [Example 15.72]",
    "pIC50": 7.82
  },
  {
    "compound": "O=C(/C=C/c1ccc(-c2ccccn2)cc1)N1C[C@@H]2CN(C(=O)c3ccc4[nH]nnc4c3)C[C@H]2C1 [Example 15.81]",
    "pIC50": 7.72
  },
  {
    "compound": "O=C(NCc1cnn[nH]1)[C@H]1C[C@@H]2CN(C(=O)OCc3cc(Cl)cc(Cl)c3)C[C@@H]2C1 [Example 4.33]",
    "pIC50": 7.44
  },
  {
    "compound": "O=C(OCc1ccc(OC(F)(F)F)cc1)N1C[C@@H]2CN(C(=O)c3cc4nn[nH]c4cn3)C[C@H]2C1 [Example 1.51]",
    "pIC50": 7.39
  },
  {
    "compound": "CC(C)c1ccccc1CCC(=O)N1CC[C@@H]2CN(C(=O)c3ccc4[nH]nnc4c3)C[C@@H]2CC1 [Example 17.08]",
    "pIC50": 7.80
  }
]

Now turn to the next compound.
With ATX (human His-tagged) (Homo sapiens (Human)) as the test system, O=C1N[C@@H]2CCN(C(=O)N3C[C@H]4CCN(C(=O)/C=C/c5ccc(OC(F)(F)F)cc5)CC[C@H]4C3)C[C@H]2O1 [Example 8.05] showed pIC50 of 6.83
